Test system: NCI-H226 lung
Experiment: NCI-60 one-dose screen, 48 h (100 = growth as untreated, 0 = no growth, -100 = all killed)
Conditions: 10 µM unless noted
The panel holds about 83,000 compounds, 20% with a hit somewhere; the sample as a whole holds those more often.
Assign YES whenever growth does not fall below 90%; assign NO whenever it does.

(Q) In plain terms: is recorded growth at least 90% for O=C1N/C(=N/N=C(c2ccccc2)c2ccccc2)S/C1=C\c1ccc(Br)cc1 ?
(A) NO

(Q) Also C=C(c1ccc(C(=O)O)c(F)c1)c1cc2c(cc1C)C(C)(C)C=CC2(C)C ?
(A) NO

(Q) Try the compound COc1ccc(-c2nc3cc(C(=O)NC4CCCCC4)ccc3n2C2CCCCC2)cc1
(A) YES

(Q) Next compound up: O=C1c2c(c3c4cccnc4[nH]c3c3ccc4ccccc4c23)C(=O)N1O
(A) NO

(Q) Quick one: O=C(Nc1ccc(Oc2cccc(F)c2)c(Cl)c1)c1cnccn1
(A) NO

(Q) Then CC(C)(C#N)c1cc(C(=O)Nc2cc(Nc3ncccc3-c3ncnc4nc[nH]c34)ccc2F)cc(C(F)(F)F)c1 ?
(A) NO

(Q) Queued: COc1nc2ccccc2cc1/C=C1/C=C(c2ccccc2)NC1=O
(A) NO

(Q) Lookup Cc1ccc(S(=O)(=O)c2nc(-c3ccccc3)oc2S(C)=O)cc1 (stereo not given)
(A) NO

(Q) Thanks! And CN(C)c1ccc(Cc2cc(-c3ccccc3)nn(C/C(=N/O)c3ccccc3)c2=O)cc1 ?
(A) NO

(Q) And for C/C=C(/C)C(=O)O[C@@H]1CC(C)(C)CC2C34OC(=O)[C@@]21CC[C@@]3(C)[C@]1(C)CCC2C(C)(C)C(=O)CC[C@]2(C)C1C[C@@H]4O (stereo not given in full) ?
(A) NO

(Q) How about this compound: CC/C(=C(/c1ccc(Cl)cc1)c1ccc(OCCN2CCCCCC2)cc1)c1ccccc1
(A) YES

(Q) // same read-out, input: O=C(/C=C/c1ccc(Cl)cc1)c1ccc(-n2cc(CN3CCN(c4cc5c(cc4F)c(=O)c(C(=O)O)cn5C4CC4)CC3)nn2)cc1
(A) NO

(Q) Another: CCN1CCN(C(=O)[C@]23CC[C@@H](C)[C@H](C)[C@@H]2C2=CC[C@@H]4[C@@]5(C)C/C(=C/c6ccncc6)C(=O)C(C)(C)[C@@H]5CC[C@@]4(C)[C@]2(C)CC3)CC1
(A) NO

(Q) Now give it for CCOC(=O)c1c(C)nc2c(c1N)C(=O)C(=O)N2CCc1ccc(OC)c(OC)c1 too.
(A) NO

(Q) // repeat for N#C/C(Sc1nc2sc3c(c2c(=O)n1Cc1ccccc1)CCCC3)=C1/SC=C(c2ccc(Cl)cc2)N1c1ccccc1 and report
(A) YES

(Q) Okay, and CC(=O)c1ccc(Nc2nccc(-c3ccc(Cl)cc3)n2)cc1 ?
(A) NO

(Q) Continue with CCN(CC)CCCNc1cc(OC)cc2cccnc12
(A) YES

(Q) Then what about the compound COc1ccc(Cn2cc(C(=O)N=Nc3c(O)[nH]c4ccc(Br)cc34)nn2)cc1 ?
(A) YES

(Q) What do you get for O=C(O)/C=C\C(=O)Nc1ccc2c(c1)Cc1cc(F)ccc1-2 ?
(A) YES

(Q) // same read-out, input: Cc1ccc(C23CCC(=O)N2CCc2cncn23)cc1 (stereo not given)
(A) YES

(Q) Now this one: O=C(Nc1ncc(Cc2ccc(Cl)cc2)s1)C1=NCCCCN1
(A) YES

(Q) Now consider Cc1nn(-c2ccccc2)c(Oc2ccccc2)c1/C=N/NC(=O)Cn1c(=O)sc2ccccc21 .
(A) NO

(Q) Try C=C(c1ccc(OC)c(/C=C/C(=O)c2cc(OC)c(OC)c(OC)c2)c1)c1cc(OC)c(OC)c(OC)c1 next.
(A) NO

(Q) Another compound to look at: Nc1nc(N)c2c(n1)NC(c1ccc3c(c1)OCO3)CC(c1cccc(Nc3ccncc3)c1)=N2 (stereo not given)
(A) NO

(Q) Please answer likewise for C1=C2CCCC3=Cc4ccccc4OC23Oc2ccccc21
(A) NO

(Q) Now consider Cc1ccc(OCCOCCOCCOCCOc2ccc(C)n(O)c2=S)c(=S)n1O and answer again.
(A) NO

(Q) Entry CCN1C(=O)N(CC)C2C1NN=c1s/c(=C\c3ccccc3)c(=O)n12 (stereo not given) please
(A) NO

(Q) Try O=C(c1ccccc1)[C@@H](c1ccccc1)[C@]1(O)C(=O)Nc2ccccc21 next.
(A) NO

Values were extracted from PubChem BioAssay (NCI).
